target: BRD4 (BDI_K57-E168) (Homo sapiens (Human), UniProt O60885); assay: TR-FRET bromodomain binding assay, BRD4 first bromodomain; settings: His-tagged BD1, Alexa647-labeled probe 100 nM
Listed molecules paired with reported Ki
quantity kind: Ki (nM)

[[record]]
molecule = "Cn1cc(-c2cc(S(C)(=O)=O)ccc2NC2CCN(Cc3cccs3)CC2)c2cc[nH]c2c1=O"
quantity_kind = "Ki"
unit_annotation = "nM"
value_operator = "="
assay_result = 22

[[record]]
molecule = "CCS(=O)(=O)c1ccc(Oc2c(C)cccc2Cl)c(-c2cn(C)c(=O)c3[nH]c(C(=O)NC(C)C(=O)NC)cc23)c1 (centres unmarked)"
quantity_kind = "Ki"
unit_annotation = "nM"
value_operator = "="
assay_result = 62.1

[[record]]
molecule = "CCNC(=O)c1cc2c(-c3ccc(C(=O)N(CC#N)c4ccccc4)cc3Oc3c(C)cccc3C)cn(C)c(=O)c2[nH]1"
quantity_kind = "Ki"
unit_annotation = "nM"
value_operator = "="
assay_result = 1490

[[record]]
molecule = "CCS(=O)(=O)c1ccc(Oc2c(C)cccc2Cl)c(-c2cn(C)c(=O)c3[nH]c(C(=O)NCC(=O)N4CCCCC4)cc23)c1"
quantity_kind = "Ki"
unit_annotation = "nM"
value_operator = "="
assay_result = 39.1

[[record]]
molecule = "CCNC(=O)c1cc2c(-c3ccc(C(=O)N(CCCN4CCCC4)C(C)Cc4ccccc4)cc3Oc3c(C)cccc3C)cn(C)c(=O)c2[nH]1 (centres unmarked)"
quantity_kind = "Ki"
unit_annotation = "nM"
value_operator = "="
assay_result = 429

[[record]]
molecule = "CCNC(=O)c1cc2c(-c3cc(S(=O)(=O)CC)ccc3Oc3c(C)cccc3Cn3cccn3)cn(C)c(=O)c2[nH]1"
quantity_kind = "Ki"
unit_annotation = "nM"
value_operator = "="
assay_result = 807

[[record]]
molecule = "Cn1cc(-c2cc(S(C)(=O)=O)ccc2Oc2ccc(F)cc2F)c2cc(CN3CCN(C4CCOCC4)CC3)[nH]c2c1=O"
quantity_kind = "Ki"
unit_annotation = "nM"
value_operator = "="
assay_result = 3.33

[[record]]
molecule = "CCNC(=O)c1cc2c(-c3ccc(C(=O)N(C)C4CCN(OC(=O)CC)CC4)cc3Oc3c(C)cccc3C)cn(C)c(=O)c2[nH]1"
quantity_kind = "Ki"
unit_annotation = "nM"
value_operator = "="
assay_result = 1040

[[record]]
molecule = "CCNC(=O)c1cc2c(-c3ccc(C(=O)N(CCN4CCSCC4)c4ccc(Cl)c(Cl)c4)cc3Oc3c(C)cccc3C)cn(C)c(=O)c2[nH]1"
quantity_kind = "Ki"
unit_annotation = "nM"
value_operator = ">"
assay_result = 12700

[[record]]
molecule = "Cn1cc(-c2cc(S(C)(=O)=O)ccc2Oc2ccc(F)cc2F)c2cc(CNCCC(N)=O)[nH]c2c1=O"
quantity_kind = "Ki"
unit_annotation = "nM"
value_operator = "="
assay_result = 230

[[record]]
molecule = "Cn1cc(-c2cc(S(C)(=O)=O)ccc2Oc2cccc(NS(=O)(=O)c3ccc(F)cc3)c2)c2cc[nH]c2c1=O"
quantity_kind = "Ki"
unit_annotation = "nM"
value_operator = "="
assay_result = 11

[[record]]
molecule = "Cn1cc(-c2cc(S(C)(=O)=O)ccc2Oc2cccc(C(=O)N3CCC(N4CCCC4)CC3)c2)c2cc[nH]c2c1=O"
quantity_kind = "Ki"
unit_annotation = "nM"
value_operator = "="
assay_result = 15

[[record]]
molecule = "COCCOCC(=O)N1CCC(Nc2ccc(S(C)(=O)=O)cc2-c2cn(C)c(=O)c3[nH]ccc23)CC1"
quantity_kind = "Ki"
unit_annotation = "nM"
value_operator = "="
assay_result = 14

[[record]]
molecule = "CN(C)c1cccc2c(S(=O)(=O)Nc3cccc(Oc4ccc(S(C)(=O)=O)cc4-c4cn(C)c(=O)c5[nH]ccc45)c3)cccc12"
quantity_kind = "Ki"
unit_annotation = "nM"
value_operator = "="
assay_result = 16

[[record]]
molecule = "CCNC(=O)c1cc2c(-c3ccc(C(=O)N(CCN(C)C)c4ncccn4)cc3Oc3c(C)cccc3C)cn(C)c(=O)c2[nH]1"
quantity_kind = "Ki"
unit_annotation = "nM"
value_operator = "="
assay_result = 2300

[[record]]
molecule = "CCNC(=O)c1cc2c(-c3ccc(C(=O)N(CCN(CC)CC)c4ccccc4OC)cc3Oc3c(C)cccc3C)cn(C)c(=O)c2[nH]1"
quantity_kind = "Ki"
unit_annotation = "nM"
value_operator = "="
assay_result = 592

[[record]]
molecule = "CCNC(=O)c1cc2c(-c3cc(S(=O)(=O)CC)ccc3Oc3c(C)cccc3Cn3ccnc3)cn(C)c(=O)c2[nH]1"
quantity_kind = "Ki"
unit_annotation = "nM"
value_operator = "="
assay_result = 2680

[[record]]
molecule = "Cn1cc(-c2cc(S(C)(=O)=O)ccc2Oc2cccc(C(=O)NC3CCCCC3)c2)c2cc[nH]c2c1=O"
quantity_kind = "Ki"
unit_annotation = "nM"
value_operator = "="
assay_result = 19

[[record]]
molecule = "Cn1cc(-c2cc(S(C)(=O)=O)ccc2Oc2cccc(NS(=O)(=O)c3ccc(S(C)(=O)=O)cc3)c2)c2cc[nH]c2c1=O"
quantity_kind = "Ki"
unit_annotation = "nM"
value_operator = "="
assay_result = 3.2

[[record]]
molecule = "CCS(=O)(=O)c1ccc(OCC2CC2(F)F)c(-c2cn(C)c(=O)c3[nH]c(CN4CCN(c5nccs5)CC4)cc23)c1 (centres unmarked)"
quantity_kind = "Ki"
unit_annotation = "nM"
value_operator = "="
assay_result = 4.4

[[record]]
molecule = "CC(=O)Nc1ccc(CNc2cccc(Oc3ccc(S(C)(=O)=O)cc3-c3cn(C)c(=O)c4[nH]ccc34)c2)cc1"
quantity_kind = "Ki"
unit_annotation = "nM"
value_operator = "="
assay_result = 0.9

[[record]]
molecule = "CCNC(=O)c1cc2c(-c3ccc(C(=O)N(CCN(CC)CC)c4ccccc4)cc3Oc3c(C)cccc3C)cn(C)c(=O)c2[nH]1"
quantity_kind = "Ki"
unit_annotation = "nM"
value_operator = "="
assay_result = 921

[[record]]
molecule = "Cn1cc(-c2cc(S(C)(=O)=O)ccc2Oc2cccc(NCc3ccc4c(c3)OCCO4)c2)c2cc[nH]c2c1=O"
quantity_kind = "Ki"
unit_annotation = "nM"
value_operator = "="
assay_result = 3.3

[[record]]
molecule = "COc1ccc(CNc2cccc(Oc3ccc(S(C)(=O)=O)cc3-c3cn(C)c(=O)c4[nH]ccc34)c2)cc1"
quantity_kind = "Ki"
unit_annotation = "nM"
value_operator = "="
assay_result = 7.8

[[record]]
molecule = "Cc1cccc(C)c1Oc1ccc(S(C)(=O)=O)cc1-c1cn(C)c(=O)c2[nH]c(-c3nc(-c4cccnc4)no3)cc12"
quantity_kind = "Ki"
unit_annotation = "nM"
value_operator = "="
assay_result = 88.5

[[record]]
molecule = "Cn1cc(-c2cc(S(C)(=O)=O)ccc2Oc2cccc(NS(=O)(=O)c3cccc(C#N)c3)c2)c2cc[nH]c2c1=O"
quantity_kind = "Ki"
unit_annotation = "nM"
value_operator = "="
assay_result = 5.3

